Biological target: Pdr3 (UniProt P33200)
Sequence: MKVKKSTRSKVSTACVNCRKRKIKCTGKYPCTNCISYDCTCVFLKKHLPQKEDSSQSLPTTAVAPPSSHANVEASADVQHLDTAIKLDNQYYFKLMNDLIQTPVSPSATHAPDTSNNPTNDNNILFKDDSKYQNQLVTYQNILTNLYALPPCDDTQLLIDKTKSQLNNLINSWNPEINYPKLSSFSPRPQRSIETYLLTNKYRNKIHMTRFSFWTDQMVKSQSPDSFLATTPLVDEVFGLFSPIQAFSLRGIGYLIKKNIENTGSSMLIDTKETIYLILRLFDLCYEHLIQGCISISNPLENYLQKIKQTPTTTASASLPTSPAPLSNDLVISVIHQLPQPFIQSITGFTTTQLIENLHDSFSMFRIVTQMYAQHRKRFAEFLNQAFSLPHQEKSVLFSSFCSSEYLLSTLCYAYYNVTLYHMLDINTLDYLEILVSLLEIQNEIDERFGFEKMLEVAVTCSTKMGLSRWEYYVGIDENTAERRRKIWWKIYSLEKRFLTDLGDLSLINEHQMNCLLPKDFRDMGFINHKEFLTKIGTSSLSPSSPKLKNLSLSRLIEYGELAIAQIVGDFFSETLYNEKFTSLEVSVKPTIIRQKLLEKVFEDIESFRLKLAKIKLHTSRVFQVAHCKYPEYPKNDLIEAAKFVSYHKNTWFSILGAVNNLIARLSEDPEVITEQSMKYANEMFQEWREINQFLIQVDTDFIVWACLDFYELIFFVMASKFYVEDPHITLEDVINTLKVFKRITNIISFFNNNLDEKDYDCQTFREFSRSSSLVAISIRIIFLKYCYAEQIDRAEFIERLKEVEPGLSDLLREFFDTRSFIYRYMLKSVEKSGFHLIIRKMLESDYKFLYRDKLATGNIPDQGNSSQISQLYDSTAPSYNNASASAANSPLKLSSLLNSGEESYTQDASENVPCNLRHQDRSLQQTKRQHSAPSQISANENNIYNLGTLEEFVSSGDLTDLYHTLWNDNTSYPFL
Test: PBM E-score (8-mer binding enrichment) (E-score (-0.5 to 0.5)); higher = stronger / more preferred TF binding
Conditions: protein concentration: 200 nM; construct: GST-full length
In all, about 33,000 sequences were measured (“E-score (-0.5 to 0.5)”: median about -0.035, highest 2% from about 0.35 on). The sample as a whole holds a higher share of the highest values than the screen did.
Parameter PBM E-score: see the listing below.

[
  {
    "sequenceInput": "ACCACAGG",
    "PBM E-score": -0.238
  },
  {
    "sequenceInput": "AAAACTTC",
    "PBM E-score": -0.029
  },
  {
    "sequenceInput": "AATTCCGC",
    "PBM E-score": 0.397
  },
  {
    "sequenceInput": "GATTCCCC",
    "PBM E-score": 0.0929
  },
  {
    "sequenceInput": "GTGGAACA",
    "PBM E-score": 0.0611
  }
]

* * *

Target: Pdr3 (UniProt P33200)
Sequence: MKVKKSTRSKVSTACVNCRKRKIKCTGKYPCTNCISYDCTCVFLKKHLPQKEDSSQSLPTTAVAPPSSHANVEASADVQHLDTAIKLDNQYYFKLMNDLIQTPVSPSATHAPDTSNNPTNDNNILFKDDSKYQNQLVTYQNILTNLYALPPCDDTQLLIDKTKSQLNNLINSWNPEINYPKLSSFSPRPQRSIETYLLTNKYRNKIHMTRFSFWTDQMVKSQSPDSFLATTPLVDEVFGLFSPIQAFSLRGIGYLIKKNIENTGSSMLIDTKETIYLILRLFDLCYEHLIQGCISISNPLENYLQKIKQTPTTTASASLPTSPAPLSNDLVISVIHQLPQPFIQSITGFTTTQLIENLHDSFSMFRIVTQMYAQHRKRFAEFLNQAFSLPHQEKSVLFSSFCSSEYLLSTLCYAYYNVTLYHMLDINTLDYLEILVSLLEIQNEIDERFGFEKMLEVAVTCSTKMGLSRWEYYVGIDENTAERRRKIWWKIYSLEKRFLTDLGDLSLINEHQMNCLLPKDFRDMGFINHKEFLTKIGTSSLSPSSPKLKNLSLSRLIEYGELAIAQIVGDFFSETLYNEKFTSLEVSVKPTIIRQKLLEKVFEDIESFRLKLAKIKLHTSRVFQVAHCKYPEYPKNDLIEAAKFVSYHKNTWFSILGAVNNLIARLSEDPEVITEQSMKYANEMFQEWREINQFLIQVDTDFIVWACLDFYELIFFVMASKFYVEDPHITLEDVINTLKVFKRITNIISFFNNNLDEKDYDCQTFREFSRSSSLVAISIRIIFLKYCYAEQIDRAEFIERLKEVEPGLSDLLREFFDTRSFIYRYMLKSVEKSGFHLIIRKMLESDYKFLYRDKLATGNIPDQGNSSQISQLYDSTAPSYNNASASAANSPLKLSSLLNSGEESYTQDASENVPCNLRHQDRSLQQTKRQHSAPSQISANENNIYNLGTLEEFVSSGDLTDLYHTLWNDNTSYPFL
Experiment: PBM E-score (8-mer binding enrichment) (E-score (-0.5 to 0.5)); higher = stronger / more preferred TF binding
Details: protein concentration: 200 nM; construct: GST-full length
The full ranking holds about 33,000 sequences; the median of “E-score (-0.5 to 0.5)” is about -0.035, and the highest 2% start at about 0.35. This excerpt belongs to a sample that is enriched for the highest values.
Record yes whenever PBM E-score is at 0.2 or higher; record no when lower.

[
  {
    "sequenceInput": "GACGGAGA",
    "className": "yes"
  },
  {
    "sequenceInput": "CCCGGTGC",
    "className": "yes"
  },
  {
    "sequenceInput": "CGGAACTC",
    "className": "yes"
  },
  {
    "sequenceInput": "CATCCCCA",
    "className": "no"
  },
  {
    "sequenceInput": "GATTTAAA",
    "className": "no"
  },
  {
    "sequenceInput": "CATCCCGC",
    "className": "yes"
  },
  {
    "sequenceInput": "GGGAACAC",
    "className": "no"
  },
  {
    "sequenceInput": "CGGCAGCC",
    "className": "yes"
  },
  {
    "sequenceInput": "CCTTTCCC",
    "className": "yes"
  },
  {
    "sequenceInput": "GTCCCTGA",
    "className": "no"
  },
  {
    "sequenceInput": "ACTGGAGC",
    "className": "no"
  },
  {
    "sequenceInput": "GGGAACTA",
    "className": "no"
  },
  {
    "sequenceInput": "ACCGGAGT",
    "className": "yes"
  },
  {
    "sequenceInput": "ACATCCGG",
    "className": "yes"
  },
  {
    "sequenceInput": "ACATCCGA",
    "className": "yes"
  },
  {
    "sequenceInput": "AAGGAAGC",
    "className": "no"
  },
  {
    "sequenceInput": "ACTTCCCC",
    "className": "no"
  },
  {
    "sequenceInput": "AATCCCGG",
    "className": "yes"
  },
  {
    "sequenceInput": "CACGGAGC",
    "className": "yes"
  },
  {
    "sequenceInput": "ACCGGACT",
    "className": "yes"
  },
  {
    "sequenceInput": "GGGAACAA",
    "className": "no"
  },
  {
    "sequenceInput": "GAAGGAAA",
    "className": "no"
  },
  {
    "sequenceInput": "CTCTATGC",
    "className": "no"
  },
  {
    "sequenceInput": "TAACGGTA",
    "className": "no"
  },
  {
    "sequenceInput": "AGGCAGCC",
    "className": "no"
  },
  {
    "sequenceInput": "CACGGAGA",
    "className": "yes"
  },
  {
    "sequenceInput": "CCGGCCGA",
    "className": "yes"
  },
  {
    "sequenceInput": "CCGATCTA",
    "className": "no"
  },
  {
    "sequenceInput": "AATCTTTC",
    "className": "no"
  },
  {
    "sequenceInput": "CGGAACAA",
    "className": "yes"
  },
  {
    "sequenceInput": "ACTTTCCT",
    "className": "no"
  }
]

Source listed as the supplement of paper PMC3334620.
